Kindly supply the reported activity change, negative = inhibition values for the records listed here.
Test: blocking HSF1-driven luciferase expression – cell-based, NIH3T3, luminescence, primary screen (AID 2098);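 also: luciferase reports HSF-1 transcriptional activity via heat shock element; 0% = median of DMSO wells and -100% = zero luminescence signal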
Settings: NIH3T3-HGL HSE-luciferase, MG132-induced, luminescence 8 h; hits give low values; screened at 7.5 µM (by protocol)
About 2,300 (0.77%) of roughly 300,000 compounds were called active. This excerpt belongs to a sample that is enriched for actives.
Numbers only, in %.

Examples with answers:
> print(dat)
                                   compound  testresult
1  Cc1cc(C)c2oc(C(=O)Nc3ccc(S(=O)(=O)Nc4nccc(C)n4)cc3)cc(=O)c2c1       -70.7
2  COC(=O)C1=CN(C)C=C(C(=O)OC)C1c1ccc(Cl)cc1Cl        6.26
3  NC(=O)c1ccsc1NC(=O)COC(=O)Cc1n[nH]c(=O)c2ccccc12       -1.64

Count: 7. Required value per item: activity change, negative = inhibition.
1. Cc1ccnc(NS(=O)(=O)c2ccc(NC(=O)c3ccc(S(=O)(=O)N(C)C)cc3)cc2)n1
2. Cc1nc(-c2ccc(F)cc2)c(CC(=O)Nc2cccc(S(=O)(=O)N3CCOCC3)c2)s1
3. COC(=O)C1=CN(c2ccc(F)c(F)c2)C=C(C(=O)OC)C1c1ccc([N+](=O)[O-])cc1
4. Cc1cc2ccccc2n1CCC(=O)O
5. CN(C(=O)COC(=O)c1ccc(Br)o1)c1c(N)n(Cc2ccccc2)c(=O)[nH]c1=O
6. COC(=O)c1nc2n(n1)C(c1ccc([N+](=O)[O-])cc1)C(C(=O)Nc1ccc(Cl)cc1)=C(C)N2 (stereo not given)
7. O=C(O)CCn1c(O)c(C=C2N=c3ccccc3=N2)sc1=S

Outgoing:
1: 1.75; 2: 4.76; 3: -77.3; 4: -0.843; 5: -3.83; 6: -14.3; 7: -52.2

Where do these numbers come from? They come from PubChem BioAssay AID2098.
